Biological target: Aminopeptidase N (Sus scrofa)
Sequence (P15145 whole entry): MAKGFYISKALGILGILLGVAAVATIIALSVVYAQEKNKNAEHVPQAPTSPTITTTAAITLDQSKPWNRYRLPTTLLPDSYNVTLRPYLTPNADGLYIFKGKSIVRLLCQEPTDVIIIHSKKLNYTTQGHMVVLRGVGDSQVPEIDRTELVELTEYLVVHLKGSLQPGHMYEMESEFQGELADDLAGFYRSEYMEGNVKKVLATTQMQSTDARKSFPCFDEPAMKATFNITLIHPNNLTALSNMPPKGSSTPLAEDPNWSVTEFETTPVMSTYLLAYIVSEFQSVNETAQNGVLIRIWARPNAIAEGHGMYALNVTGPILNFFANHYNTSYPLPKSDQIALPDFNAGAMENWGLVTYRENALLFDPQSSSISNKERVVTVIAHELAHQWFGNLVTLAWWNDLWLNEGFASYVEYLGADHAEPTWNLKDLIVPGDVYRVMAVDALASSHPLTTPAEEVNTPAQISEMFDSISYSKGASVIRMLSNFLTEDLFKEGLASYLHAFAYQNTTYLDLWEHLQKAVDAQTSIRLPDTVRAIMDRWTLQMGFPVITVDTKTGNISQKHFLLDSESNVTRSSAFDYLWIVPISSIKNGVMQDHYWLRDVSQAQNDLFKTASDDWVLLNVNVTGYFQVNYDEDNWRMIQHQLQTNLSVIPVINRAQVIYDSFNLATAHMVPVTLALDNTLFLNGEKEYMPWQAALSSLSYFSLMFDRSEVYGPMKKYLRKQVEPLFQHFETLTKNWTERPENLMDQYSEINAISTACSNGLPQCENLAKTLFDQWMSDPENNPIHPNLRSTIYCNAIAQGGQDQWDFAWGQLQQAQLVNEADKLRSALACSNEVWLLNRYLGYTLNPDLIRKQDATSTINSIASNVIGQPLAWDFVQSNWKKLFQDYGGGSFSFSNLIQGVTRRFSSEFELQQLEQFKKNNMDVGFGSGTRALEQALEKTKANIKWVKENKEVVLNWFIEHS
pIC50: −log10 of the molar value.
Some compounds, each annotated with its measured pIC50.

Would you please look over these solved cases?
| smiles notation | observed measurement |
| --- | --- |
| C[C@H](N)C(=O)NC[C@H](N)Cc1ccccc1 | < 3.00 |
| NC(=O)CC[C@H](N)C(=O)NC[C@H](N)Cc1ccccc1 | < 3.00 |

QUERY: Provide one value: measured pIC50 of `NCC(=O)NC[C@H](N)Cc1ccccc1`
RESULT: < 3.00
